Assay comment: Human HepG2 cell viability assay in 384 well format
Assay type: toxicity, cell-based
Design: dose 125 nL, time 70.5 hour; concentration not given beside the values
Experimental setup: HepG2 cells, read-out: Inhibition
Please respond with reported cytotoxicity at 70.5 h for every item in the list.
All answers are understood in %, so give the number only.

Quick check: cytotoxicity at 70.5 h of Cc1ncc2c(n1)CN(CC(=O)N1CCc3sccc3C1)CC2 ? -1.15

How about this compound: CCS(=O)(=O)CCN1CCN(C(C)c2cccnc2)CC1 (configuration not stated) 19.9

How about this compound: CCc1c(C)[nH]c(C2(N)CCCC2)nc1=O -2.07

How about this compound: COCC(=O)N1CCC(c2cc(C(F)(F)F)n3ccnc3n2)CC1 -8.3

How about this compound: CC(C)Cc1noc(C2CCN(C(=O)c3cccs3)CC2)n1 -0.0683

How about this compound: c1ccc(CCNCC2Cn3nncc3CO2)cc1 (configuration not stated) -0.333

How about this compound: O=C(c1cc(-n2cccn2)ccn1)N1CCOc2ccncc21 -0.581

How about this compound: COCCN1CCC(CNC(=O)c2cc(C)cc(C)c2)C1 (configuration not stated) -11.9

How about this compound: CCOCC(=O)N(Cc1ccco1)c1ccc(OC)c(F)c1 -5.82

How about this compound: O=C(C1CCC1)N1CCC2(COCc3cnc(N4CCOCC4)nc32)C1 (configuration not stated) 8.28

How about this compound: Cc1cc(-c2cnc(NC3CCCC3)nc2-c2ccoc2C)on1 -8.8

How about this compound: Cc1cc(C(=O)N2CC[C@H]3[C@@H]2CCC(=O)N3c2ccccc2)no1 -8.05

How about this compound: N#Cc1ccccc1N1CCCN(CC(=O)Nc2ccc(Cl)cn2)CC1 -2.38

How about this compound: CS(=O)(=O)c1cncnc1C1CCCN(C(=O)Nc2ccc(F)cc2)C1 (configuration not stated) -4.34

How about this compound: O=C(Nc1ccccc1F)N(CCO)Cc1ccsc1 31.8

How about this compound: COc1ccc(CNCc2cn(C)nc2C)cc1 -2.32

How about this compound: COc1cccc(NC(=O)CC2Cn3ncnc3NC2=O)c1 (configuration not stated) -10.6

How about this compound: CC(C)CC(NCc1ccsc1)c1ccccn1 (configuration not stated) 22.4

How about this compound: Cc1nn2cccnc2c1C(=O)N1CCCC(n2cccn2)C1 (configuration not stated) 17.9

How about this compound: COC(=O)c1cccc(C(=O)N2CCN(c3cc(C)ccc3C)CC2)n1 0.723

How about this compound: CO[C@@H]1CCN(S(=O)(=O)c2cccnc2)[C@@H]2CN(CC3CC3)C[C@@H]21 -8.38

How about this compound: Cc1ccnn1CCC(=O)N1CCN(C2CCc3ccccc3C2)CC1 (configuration not stated) -12.6

How about this compound: Cn1ccnc1C1(O)CCN(C(=O)CCc2ccccc2)CC1 -5.37

How about this compound: Cc1cc(CN2C[C@@H]3CCCO[C@@H]3[C@H](N(C)C(C)C)C2)no1 -3.76

How about this compound: CC(=O)N1CCC(c2nnc3ccc(C(=O)NC(C)C)cn23)C1 (configuration not stated) -1.85

How about this compound: COc1cc(CNc2ccc(C)c(Cl)c2)ccc1OCC(N)=O -11.9

How about this compound: O=C1COC2(CCN(Cc3ccco3)CC2)CN1CCn1cccn1 -6.38

How about this compound: CCN(Cc1nc(COC)no1)Cc1cccnc1NC(=O)C(C)(C)C -9.55

How about this compound: CCN(Cc1ccncc1)C(=O)c1cn(CC2CCCNC2)nn1 (configuration not stated) -17.4

How about this compound: O=C(c1cc(COc2ccc3c(c2)OCO3)[nH]n1)N1CCCC1 -5.85

How about this compound: CC(C)c1noc(CCNC(=O)NCC2Cc3ccccc3O2)n1 (configuration not stated) -13.5

How about this compound: CCN1CCCC1Cn1ccc2ccc(C(=O)OC)cc2c1=O (configuration not stated) -8.61

How about this compound: CCOc1ccccc1OCC(=O)NCc1ncc(C)c(OC)c1C -10.2

How about this compound: O=C1CCC2(CCN(CC[C@H](O)c3ccccc3)CC2)CN1CCO 1.6

How about this compound: CSc1ncc(C(=O)N2C[C@H]3CC[C@@H]2CN(c2ncccn2)C3)cn1 24.3

How about this compound: COc1ncc(C)cc1NC(=O)COCC(F)(F)F 2.73

How about this compound: Cn1ccc(CN2CC(Cc3nccc4cc[nH]c34)C2)n1 -4.79

How about this compound: O=C(C1SCCc2sccc21)N1CCN(CCO)CC1 (configuration not stated) -2.81

How about this compound: Cc1nnc2n1CCN(CCC(=O)Nc1sccc1C#N)C2 -12.9

How about this compound: O=c1cc(CNS(=O)(=O)C2CC2)nc2n1CCCNC2 -2.64

How about this compound: c1ccc(CO[C@@H]2C[C@H]3CN(c4ncccn4)CCN3C2)cc1 5.2

How about this compound: COc1cnc(C2(O)CCN(C(=O)c3ccncc3)CC2)c(OC)n1 -4.69

How about this compound: CCC(CC)N(Cc1ccc2c(c1)OCO2)C(=O)c1ccc(=O)n(C)c1 -1.82

How about this compound: CCc1ccc(-c2cn(CCSc3ncn[nH]3)nn2)nc1 -1.59

How about this compound: CCCC(=O)NCCc1cc(N2CCN(C(C)=O)CC2)nc(C2CC2)n1 -6.31

How about this compound: COC(=O)CN1CCN(c2nc3c(s2)c(C)nn3C)C(C)C1=O (configuration not stated) 3.44

How about this compound: Cc1ccc(C(=O)N(C)Cc2nccn2CC(F)(F)F)cn1 -13.5

###

Please respond with reported cytotoxicity at 70.5 h for every item in the list.
Assay comment: Human HepG2 cell viability assay in 384 well format
Type: toxicity, cell-based
Design: dose 125 nL, time 70.5 hour; concentration not given beside the values
Experimental setup: HepG2 cells, read-out: Inhibition
All answers are understood in %, so give the number only.

Quick check: cytotoxicity at 70.5 h of O=C(CC1=CCCCC1)Nc1ncn(CC(=O)N2CCCCCC2)n1 ? -6.09

How about this compound: CC(C)n1nc2c(cc1=O)CN(Cc1nc(-c3ccoc3)no1)CC2 17

How about this compound: CC(NC(=O)c1ccnn1C)c1ccc(OCC2CC2)c(F)c1 (centres undefined) 10.9

How about this compound: Cc1ccc(CN(C(=O)NCCNC(=O)c2cccnc2)C(C)C)o1 14.6

How about this compound: O=C(Nc1ccccc1OCC(F)F)N[C@@H]1C=C[C@H](CO)C1 4.97

How about this compound: COc1ccc2c(c1)CCCN2C(=O)CNCC1CN(C)CCO1 (centres undefined) 12.1

How about this compound: CC(C)[C@@H]1CN(c2ncc(F)cn2)C[C@H]1NC(=O)N(C)C -3.08

How about this compound: Cc1ccc(CN2CC[C@H]3C[C@H](C(=O)N4CCCO4)O[C@@H]3C2)o1 1.31

How about this compound: O=C1COC2(CCN(C(=O)[C@H]3CCCO3)CC2)CN1Cc1ccccn1 17.4

How about this compound: COCCNC(=O)N1CCN(C(C)C(=O)NC2CCCC2)CC1 (centres undefined) -5.61

How about this compound: CC(=O)N1CCN(C(=O)NCCCc2cn[nH]c2C)CC1 -14.4

How about this compound: CNC(=O)c1cnc2n1CCN(Cc1cccnc1OC)C2 -4.55

How about this compound: CC(C)N1CCOCC2(CN(Cc3ccco3)CCO2)C1 (centres undefined) -8.16

How about this compound: O=C(c1cccnc1O)N1CCCC2(C=Cc3ccccc3O2)CC1 (centres undefined) -4.51

How about this compound: CS(=O)(=O)N1CCC(CNc2cc(Cl)ccc2C#N)CC1 -6.86

How about this compound: COCC[C@]1(O)CCN(S(=O)(=O)c2ccc(C)cc2OC)C[C@H]1C -4.64

How about this compound: CC(C)(C)c1cc(NC(=O)CN2CCCC2Cn2cncn2)on1 (centres undefined) 21.1

How about this compound: CCN1CC2(CNCCN(C(=O)Nc3ccccc3)C2)CC1=O (centres undefined) 2.39

How about this compound: CCc1ncc2c(n1)CN(Cc1nc(C)c(C)o1)CC2 1.3

How about this compound: CC(=O)N1CCn2c(-c3cccc(F)c3)cnc2C12CCNCC2 -7.49

How about this compound: NC(=O)NCC1CCCCN1C(=O)c1cc(F)cc(F)c1 (centres undefined) -2.44

How about this compound: Nc1nc2c(c(N3CCCC3)n1)CCN(Cc1ccccn1)CC2 8.7

How about this compound: CCCS(=O)(=O)NC(=O)c1sc(C2CCCC2)nc1C -3.78

How about this compound: Cc1nn(CC(=O)N2CCN(c3ccncc3)CC2)c(C)c1Cl 1.17
